# Test System: Sentrin-specific protease 1 (Homo sapiens)
# Sequence (Q9P0U3 whole entry): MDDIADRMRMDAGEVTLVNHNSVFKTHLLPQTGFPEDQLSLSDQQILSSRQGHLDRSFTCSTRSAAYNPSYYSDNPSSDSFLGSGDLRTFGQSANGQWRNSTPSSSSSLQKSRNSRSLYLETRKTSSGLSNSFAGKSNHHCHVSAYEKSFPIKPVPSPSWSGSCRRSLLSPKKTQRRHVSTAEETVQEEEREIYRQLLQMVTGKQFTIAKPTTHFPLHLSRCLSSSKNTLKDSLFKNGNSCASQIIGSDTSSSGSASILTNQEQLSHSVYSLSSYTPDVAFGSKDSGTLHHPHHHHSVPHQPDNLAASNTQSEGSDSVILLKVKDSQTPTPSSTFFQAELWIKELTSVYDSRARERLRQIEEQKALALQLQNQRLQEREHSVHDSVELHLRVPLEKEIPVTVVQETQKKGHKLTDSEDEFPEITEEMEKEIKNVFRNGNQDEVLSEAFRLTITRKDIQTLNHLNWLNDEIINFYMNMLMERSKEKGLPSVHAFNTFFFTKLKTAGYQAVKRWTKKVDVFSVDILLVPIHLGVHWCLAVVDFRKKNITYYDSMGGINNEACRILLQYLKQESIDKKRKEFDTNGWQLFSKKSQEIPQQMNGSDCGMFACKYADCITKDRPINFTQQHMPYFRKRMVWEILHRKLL
// returns class 0 unless IC50 is strictly below 20 µM, in which case class 1

Molecule | Test System | Assigned Class
Oc1c2c(c(O)n1-c1ccccn1)C(c1ccccc1)C=CC2c1ccccc1 (stereo not given) | Sentrin-specific protease 1 (Homo sapiens) | class 1
COc1nccnc1NS(=O)(=O)c1ccc(NC(=S)NC(=O)c2ccc(F)cc2)cc1 | Sentrin-specific protease 1 (Homo sapiens) | class 1
CC1=C(C#N)C(=O)NC(=O)C1=NNc1ccc(Br)cc1C(=O)O | Sentrin-specific protease 1 (Homo sapiens) | class 1
O=C1CC(=Nc2ccc(Cl)cc2)C(=O)N1c1ccc(Cl)cc1 | Sentrin-specific protease 1 (Homo sapiens) | class 0
COc1ccc(C=Nn2c(O)csc2=S)cc1Br | Sentrin-specific protease 1 (Homo sapiens) | class 1
